PROTOCOL DETAILS: Diuretic action (urine output for 5 hours after physiological saline loading in rats)
Format: in vivo, male Wistar rats
MEASUREMENT CONDITIONS: Rattus norvegicus, sc, dose giving urine output of 200 (non-dosed group = 100), 5 hours after saline 20 ml/kg p.o.
Where a name gives a salt, the structure may show the parent alone.
OBSERVABLE: ED (200% urine output) (µg/kg)

>>> val("CN(C(=O)Cc1ccc(Cl)c(Cl)c1)[C@H]1CC[C@@]2(O)[C@H]3Cc4ccc(O)c5c4[C@@]2(CCN3CC2CC2)[C@H]1O5 [Compound 1]")
2.7
>>> val("CN(C(=O)/C=C/c1cccc(Br)c1)[C@@H]1CC[C@@]2(O)[C@H]3Cc4ccc(O)c5c4[C@@]2(CCN3CC2CC2)[C@H]1O5 [Compound 151, hydrobromide]")
4.45
>>> val("CN(C(=O)/C=C/c1cccc(F)c1)[C@H]1CC[C@@]2(O)[C@H]3Cc4ccc(O)c5c4[C@@]2(CCN3CC2CC2)[C@H]1O5 [Compound 96]")
1.3

* * *

STUDY SYSTEM: κ receptor (Mus musculus)
Construct: from tissue; host or cells: mouse (male ddy) vas deferens
Sequence (P33534 whole entry): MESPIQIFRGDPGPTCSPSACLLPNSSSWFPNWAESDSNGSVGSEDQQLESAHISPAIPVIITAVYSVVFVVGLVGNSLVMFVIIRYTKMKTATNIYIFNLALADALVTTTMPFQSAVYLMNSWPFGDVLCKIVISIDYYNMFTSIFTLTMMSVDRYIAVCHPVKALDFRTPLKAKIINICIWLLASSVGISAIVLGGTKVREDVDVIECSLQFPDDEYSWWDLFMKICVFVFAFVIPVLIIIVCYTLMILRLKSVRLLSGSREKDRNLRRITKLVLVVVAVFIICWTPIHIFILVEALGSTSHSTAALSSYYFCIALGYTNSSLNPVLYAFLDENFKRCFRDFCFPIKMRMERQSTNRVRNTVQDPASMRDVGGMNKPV
PROTOCOL DETAILS: Opioid activity test using an extracted mouse vas deferens preparation, Ke with norBNI
Set-up: species or system male ddy mouse
MEASUREMENT CONDITIONS: κ, norBNI added
Counter-ions that a name gives are not always drawn.
OBSERVABLE: Ke, norBNI (nM)

>>> val("CCCCOC(=O)N(C)[C@@H]1CC[C@@]2(O)[C@H]3Cc4ccc(O)c5c4[C@@]2(CCN3CC2CC2)[C@H]1O5")
0.151
>>> val("CN(C(=O)/C=C/c1cccc(F)c1)[C@@H]1CC[C@@]2(O)[C@H]3Cc4ccc(O)c5c4[C@@]2(CCN3CC2CC2)[C@H]1O5")
2.37
>>> val("CN(C(=O)C#Cc1ccccc1)[C@@H]1CC[C@@]2(O)[C@H]3Cc4ccc(O)c5c4[C@@]2(CCN3CC2CC2)[C@H]1O5")
0.0425
>>> val("CCCCCCC(=O)N(C)[C@H]1CC[C@@]2(O)[C@H]3Cc4ccc(O)c5c4[C@@]2(CCN3CC2CC2)[C@H]1O5")
0.440
>>> val("CN(C(=O)/C=C/c1ccccc1)[C@H]1CC[C@@]2(O)[C@H]3Cc4ccc(O)c5c4[C@@]2(CCN3CC2CC2)[C@H]1O5")
4.90
>>> val("CN(C(=O)/C=C/c1ccc(Cl)cc1)[C@@H]1CC[C@@]2(O)[C@H]3Cc4ccc(O)c5c4[C@@]2(CCN3CC2CC2)[C@H]1O5 [Compound 152, hydrochloride]")
0.039

* * *

STUDY SYSTEM: μ receptor (Mus musculus, UniProt P42866)
Construct: naloxone as mu antagonist (printed 'agonist')
Sequence (P42866 whole entry): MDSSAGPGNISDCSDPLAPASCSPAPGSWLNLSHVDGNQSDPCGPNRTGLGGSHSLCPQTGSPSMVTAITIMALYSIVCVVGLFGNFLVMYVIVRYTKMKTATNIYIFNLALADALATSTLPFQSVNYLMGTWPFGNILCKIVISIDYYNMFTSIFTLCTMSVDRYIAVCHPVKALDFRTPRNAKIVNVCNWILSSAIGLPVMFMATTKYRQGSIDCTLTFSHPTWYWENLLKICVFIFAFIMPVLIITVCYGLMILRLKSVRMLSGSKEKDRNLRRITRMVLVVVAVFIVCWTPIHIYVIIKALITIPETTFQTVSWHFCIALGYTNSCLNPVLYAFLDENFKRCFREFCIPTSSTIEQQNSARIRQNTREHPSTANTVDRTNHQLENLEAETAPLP
PROTOCOL DETAILS: Opioid activity test using an extracted mouse vas deferens preparation, Ke with naloxone
Design: species or system male ddy mouse
MEASUREMENT CONDITIONS: naloxone added
Experimental: A male ddy mouse was used in this test. […] Tissue contractions were recorded on a polygraph using an isometric transducer. After adequately washing with nutrient solution and the contraction reaction stabilized, the μ agonist, naloxone, the δ agonist, NTI, or the κ agonist, norBNI, was added after which the test compound was again cumulatively added after roughly 20 minutes. The Ke value was calculated using the following calculation formula from the difference in the efficacies of both agonists. […]
Counter-ions that a name gives are not always drawn.
Short version: Ke, Naloxone at least 200 nM is Met, less is Not met.

>>> assigned_label("CC(C)CN(C(=O)/C=C/c1cccc(C(F)(F)F)c1)[C@@H]1CC[C@@]2(O)[C@H]3Cc4ccc(O)c5c4[C@@]2(CCN3CC2CC2)[C@H]1O5")
"Not met"
>>> assigned_label("CN(C(=O)Cc1ccc(Cl)c(Cl)c1)[C@H]1CC[C@@]2(O)[C@H]3Cc4ccc(O)c5c4[C@@]2(CCN3CC2CC2)[C@H]1O5")
"Not met"
>>> assigned_label("CN(C(=O)/C=C/c1ccc(C(F)(F)F)cc1)[C@@H]1CC[C@@]2(O)[C@H]3Cc4ccc(O)c5c4[C@@]2(CCN3CC2CC2)[C@H]1O5")
"Met"
>>> assigned_label("CN(C(=O)/C=C/c1cccc([N+](=O)[O-])c1)[C@@H]1CC[C@@]2(O)[C@H]3Cc4ccc(O)c5c4[C@@]2(CCN3CC2CC2)[C@H]1O5")
"Not met"
>>> assigned_label("C=CCN1CC[C@]23c4c5ccc(O)c4O[C@H]2[C@@H](N(C)C(=O)Cc2ccc(Cl)c(Cl)c2)CC[C@@]3(O)[C@H]1C5")
"Not met"
>>> assigned_label("CN(C(=O)/C=C/c1cccc(Cl)c1)[C@@H]1CC[C@@]2(O)[C@H]3Cc4ccc(O)c5c4[C@@]2(CCN3CC2CC2)[C@H]1O5 [Compound 154, hydrochloride]")
"Not met"
>>> assigned_label("CN(C(=O)/C=C/c1ccccc1)[C@@H]1CC[C@@]2(O)[C@H]3Cc4ccc(O)c5c4[C@@]2(CCN3CC2CC2)[C@H]1O5")
"Not met"
>>> assigned_label("CCC/C=C/C(=O)N(C)[C@@H]1CC[C@@]2(O)[C@H]3Cc4ccc(O)c5c4[C@@]2(CCN3CC2CC2)[C@H]1O5")
"Met"
>>> assigned_label("CCCCOC(=O)N(C)[C@H]1CC[C@@]2(O)[C@H]3Cc4ccc(O)c5c4[C@@]2(CCN3CC2CC2)[C@H]1O5")
"Not met"
>>> assigned_label("CC(=O)Oc1ccc2c3c1O[C@H]1[C@H](N(C)C(=O)/C=C/c4ccccc4)CC[C@@]4(O)[C@@H](C2)N(CC2CC2)CC[C@]314")
"Met"
>>> assigned_label("CN(C(=O)/C=C/c1cccc([N+](=O)[O-])c1)[C@H]1CC[C@@]2(O)[C@H]3Cc4ccc(O)c5c4[C@@]2(CCN3CC2CC2)[C@H]1O5")
"Not met"
>>> assigned_label("CN(C(=O)C#Cc1ccc(C(F)(F)F)cc1)[C@H]1CC[C@@]2(O)[C@H]3Cc4ccc(O)c5c4[C@@]2(CCN3CC2CC2)[C@H]1O5")
"Not met"

* * *

PROTOCOL DETAILS: Diuretic action (urine output for 5 hours after physiological saline loading in rats)
Type: in vivo, male Wistar rats
MEASUREMENT CONDITIONS: Rattus norvegicus, sc, dose giving urine output of 200 (non-dosed group = 100), 5 hours after saline 20 ml/kg p.o.
Counter-ions that a name gives are not always drawn.
OBSERVABLE: ED (200% urine output) (µg/kg)

>>> val("COc1cccc(C#CC(=O)N(C)[C@H]2CC[C@@]3(O)[C@H]4Cc5ccc(O)c6c5[C@@]3(CCN4CC3CC3)[C@H]2O6)c1.O=C(O)C(O)C(O)C(=O)O")
4.44
>>> val("CN(C(=O)Cc1ccc(Cl)c(Cl)c1)[C@@H]1CC[C@@]2(O)[C@H]3Cc4ccc(O)c5c4[C@@]2(CCN3CC2CC2)[C@H]1O5")
135
>>> val("CCC/C=C/C(=O)N(C)[C@H]1CC[C@@]2(O)[C@H]3Cc4ccc(O)c5c4[C@@]2(CCN3CC2CC2)[C@H]1O5")
2.8
>>> val("CC(=O)Oc1ccc2c3c1O[C@H]1[C@H](N(C)C(=O)/C=C/c4cccc(C(F)(F)F)c4)CC[C@@]4(O)[C@@H](C2)N(CC2CC2)CC[C@]314")
31.9
>>> val("CN(C(=O)Cc1ccc(Br)cc1)[C@H]1CC[C@@]2(O)[C@H]3Cc4ccc(O)c5c4[C@@]2(CCN3CC2CC2)[C@H]1O5")
20
>>> val("CN(C(=O)OCc1ccc([N+](=O)[O-])cc1)[C@H]1CC[C@@]2(O)[C@H]3Cc4ccc(O)c5c4[C@@]2(CCN3CC2CC2)[C@H]1O5")
0.54
>>> val("CN(C(=O)CC(=O)c1ccccc1)[C@H]1CC[C@@]2(O)[C@H]3Cc4ccc(O)c5c4[C@@]2(CCN3CC2CC2)[C@H]1O5")
6.5
>>> val("CN(C(=O)/C=C/c1ccc(Cl)cc1)[C@@H]1CC[C@@]2(O)[C@H]3Cc4ccc(O)c5c4[C@@]2(CCN3CC2CC2)[C@H]1O5 [Compound 152, hydrochloride]")
0.71
>>> val("CN(C(=O)Cc1cccc(C(F)(F)F)c1)[C@H]1CC[C@@]2(O)[C@H]3Cc4ccc(O)c5c4[C@@]2(CCN3CC2CC2)[C@H]1O5")
21
>>> val("CN(C(=O)/C=C/C1CCCCC1)[C@H]1CC[C@@]2(O)[C@H]3Cc4ccc(O)c5c4[C@@]2(CCN3CC2CC2)[C@H]1O5")
2.1
>>> val("CN(C(=O)/C=C/c1ccc(Br)cc1)[C@@H]1CC[C@@]2(O)[C@H]3Cc4ccc(O)c5c4[C@@]2(CCN3CC2CC2)[C@H]1O5 [Compound 156, hydrobromide]")
5.45
>>> val("CN(C(=O)C#Cc1ccccc1)[C@@H]1CC[C@@]2(O)[C@H]3Cc4ccc(O)c5c4[C@@]2(CCN3CC2CC2)[C@H]1O5")
8.9
